Kindly supply the reported TGI values for the records listed here.
system: HOP-62 NSCLC; assay: NCI tumour cell line growth inhibition, 48 h
One number for each entry, in µM.

These recorded examples may help you get a feel for the data.
• Cc1cc(Cl)ccc1Nc1nc(C(F)(F)F)ccc1C(=O)N/N=C/c1ccccc1Cl = 2.72
• CCOC(=O)c1ccc2c(c1)[n+](=O)c(C(C)=O)c(C(F)(F)F)n2[O-] = 3.54
• O=C(/C=C/C12c3ccccc3C(c3ccccc31)C1C(=O)NC(=O)C12)c1ccc(Cl)cc1 (centres undefined) = 3.39
• COc1cc(C2c3cc4c(cc3[C@@H](Oc3ccc(F)cc3)C3COC(=O)[C@H]23)OCO4)cc(OC)c1O (some centres undefined) = 0.95
• O=C(C[P+](c1ccccc1)(c1ccccc1)c1ccccc1)C[P+](c1ccccc1)(c1ccccc1)c1ccccc1 = 2.84
• ClCc1cccc(CSc2ncnc3c2ncn3Cc2cccc(CCl)c2)c1 = 3.33
• COc1cccc(/C(C)=N/NC(=O)CSc2nc3ccccc3c(=O)n2CCc2ccc(S(N)(=O)=O)cc2)c1 = 9.63
• CCOC(=O)/C=C/C(=O)[C@H](CC(C)C)NC(=O)[C@H](Cc1ccccc1)NC(=O)OCc1ccccc1 = 29.6

For every item below, please supply its TGI.
1. CC1CN=C(c2cccc(-c3nc(-c4cccc(C5=NCC(C)N5)c4)nc(N(C)C)n3)c2)N1 (centres undefined)
2. O=S(=O)(Nc1ccc(F)c(Cl)c1)c1ccc(-c2cnc(C3CC3)o2)cc1
3. CC(C)(C)OC(=O)CN1CCN(CC(=O)N2CCN(C(=O)OCc3ccccc3)CC2)CCN(CC(=O)OC(C)(C)C)CCN(CC(=O)N2CCN(C(=O)OCc3ccccc3)CC2)CC1
4. C=C1C(=O)O[C@H]2[C@H]1CC/C(COC(=O)NCCc1c[nH]c3ccc(Cl)cc13)=C\CC[C@@]1(C)O[C@@H]21
5. COc1ccc(C2C=C(c3ccc(Cl)cc3)N=C3SC=C(C)N32)c(Br)c1 (centres undefined)
6. CC(=O)OC1CC[C@@]2(C)C(CC[C@]3(C)C2CC=C2[C@@H]4C(C)[C@H](C)CCC4(C)CCC23C)[C@@]1(C)C(=O)O (some centres undefined)

1. 5.9
2. 14.4
3. 16.4
4. 5.48
5. 13.4
6. 43.1

For every item below, please supply its TGI.
1. Nc1ccc(-c2nc3ccccc3s2)cc1C#Cc1ccccc1
2. CCCCCCCC(=O)OCC(=O)[C@]1(O)Cc2c(O)c3c(c(O)c2[C@@H](OC2CC(N)C(O)C(C)O2)C1)C(=O)c1c(OC)cccc1C3=O (some centres undefined)
3. O=C1c2ccccc2C(=O)c2c(NCC3CO3)ccc(NCC3CO3)c21 (centres undefined)

1: 28.2; 2: 1.74; 3: 6.96

* * *

system: MDA-MB-231 breast; assay: NCI tumour cell line growth inhibition, 48 h; in the data active = GI50 below about 0.43 µM; inactive = the rest
Please answer using one outcome listed in t for active, f for inactive

Reference set, count: 5
- COc1cccc(/C(C)=N/NC(=O)CSc2nc3ccccc3c(=O)n2CCc2ccc(S(N)(=O)=O)cc2)c1: f
- COc1ccc(Nc2nc3cc(N)cc(N)c3nc2-c2ccccc2)cc1OC: f
- Cc1cn(-c2ccc(S(C)(=O)=O)cc2)c(-c2ccc(Cl)cc2)n1: f
- CCS(=O)(=O)c1ccc(OC)c(Nc2ncc(-c3ccccc3Cl)o2)c1: f
- O=C(CC(=O)c1cccc(Cl)c1)c1cccc(Cl)c1: f

Returns: the outcome recorded for `Nc1nc(=O)n([C@@H]2CS[C@H](CO)O2)cc1F` in this assay.
f

Returns: the outcome recorded for `Cc1cnc(Nc2ccc(N3CCN(C)CC3)cc2)nc1Nc1ccc(Cl)c(NS(=O)(=O)C(C)(C)C)c1` in this assay.
t

Returns: the outcome recorded for `O=c1oc2ccc(-c3ccc(F)cc3F)cc2c(=O)n1-c1ccc(Cl)c(C(F)(F)F)c1` in this assay.
f

* * *

system: NCI-H522 lung; test: NCI tumour cell line growth inhibition, 48 h; in the data active means GI50 below about 0.43 µM; inactive means the rest
Please answer using one outcome listed in active, inactive

Reference set, count: 3
* O=c1cc(-c2ccccc2)oc2cc(OC/C(=N/O)c3ccc(F)cc3)ccc12 | inactive
* c1ccc([As]=[As]c2ccccc2)cc1 (configuration not stated) | inactive
* COc1cc(-n2ccnc2)cc(OC)c1OC | inactive

Returns: the outcome recorded for `COc1cccc(/C(C)=N/NC(=O)CSc2nc3ccccc3c(=O)n2CCc2ccc(S(N)(=O)=O)cc2)c1` in this assay.
inactive

Returns: the outcome recorded for COc1ccc(C(CC(=O)c2ccccc2)C(C(=O)c2ccccc2)C(c2ccc(OC)cc2)C2C(=O)NC(=S)NC2=O)cc1 (configuration not stated) in this assay.
inactive

Returns: the outcome recorded for `CC(=O)c1cc(C(=O)c2ccc3c(c2)Sc2ccccc2N3)c2c(C)cccn12` in this assay.
active

Returns: the outcome recorded for `O=c1oc2ccc(-c3ccc(F)cc3F)cc2c(=O)n1-c1ccc(Cl)c(C(F)(F)F)c1` in this assay.
inactive

* * *

tested on: SNB-78 CNS; assay: NCI tumour cell line growth inhibition, 48 h
valueType: TGI

These recorded examples may help you get a feel for the data.
* CCCN(CCC)c1c([N+](=O)[O-])cc(C(=O)N(CCO)CCO)cc1[N+](=O)[O-] | > 100 µM
* CCOC(=O)C1([Se]c2ccccc2)CCCC1=O (centres undefined) | 54.9 µM
* CC[N+](C)(CC)CC(C)(C)C(=O)/C=C/c1ccc(/C=C/C(=O)C(C)(C)C[N+](C)(CC)CC)cc1 | > 100 µM

Please turn your attention to the following entry.
The value of TGI measured for the compound `N#Cc1ccc2cc3c(cc2c1)OCO3` turned out to be > 100 µM

* * *

tested on: T-47D breast; assay: NCI tumour cell line growth inhibition, 48 h
Kindly supply the reported TGI values for the records listed here.
Numbers only, in µM.

For every item below, please supply its TGI.
1. O=C(Nc1ccccc1O)c1ccc(NS(=O)(=O)c2cccc3cccnc23)cc1
2. CO[C@@H]1C[C@H](OC(N)=O)[C@@H]2C=C[C@@H]3/C=C(C)/C=C/[C@@H](C)[C@H](/C(C)=C/[C@@H](C)NC(C)=O)OC(=O)/C=C/C=C(C)\C=C\[C@]3(C)[C@@H]2C1
3. O=c1oc2ccc(-c3ccc(F)cc3F)cc2c(=O)n1-c1ccc(Cl)c(C(F)(F)F)c1

[4.16, 2.98, 4.34]

For every item below, please supply its TGI.
1. COc1ccc2c3c([nH]c2c1)CCN(Cc1ccccc1)C3
2. CCOC(=O)C(C)c1nc2ccc(C(F)(F)F)cc2[nH]c1=O (stereo not given)

1: 69.1; 2: 69.9

* * *

test system: M19-MEL melanoma; test: NCI tumour cell line growth inhibition, 48 h
valueType: TGI

These recorded examples may help you get a feel for the data.
* CC1NC(=O)C2=C1C(N)=NC(=O)C2 (stereo not drawn) | > 100 µM
* CCOc1ccc(O)cc1[P+](c1ccccc1)(c1ccccc1)c1ccccc1 | 15.3 µM
* Cn1c(=O)c2[nH]cnc2n(CC(N)=O)c1=O | > 100 µM
* C#CC1(O)CCC2[C@@H]3CCc4cc(Oc5nc(F)nc(-c6c7ccccc7cn6C)n5)ccc4C3CC[C@@]21C (stereo partly drawn) | > 100 µM
* CC(=O)N(O)Cc1ccccc1 | > 100 µM
* NCCCCCCNCc1cccc2ccccc12 | > 100 µM
* COc1ccc(C2C3CCCC(C3=O)C(c3ccc(OC)cc3)N2N=O)cc1 (stereo not drawn) | 99.2 µM
* CCn1c2c(c3ccccc31)C(c1ccccc1)CC1C(=O)N(c3ccccc3)C(=O)C21 (stereo not drawn) | > 100 µM
* CC(C)(C)OC(=O)c1cccnc1/C=N/O | > 100 µM
* CCOC(=O)C(CNc1ccc(O)cc1)NC(=O)c1ccccc1 (stereo not drawn) | > 100 µM

For every item below, please supply its TGI.
1. Cc1cc(=O)[nH]c(CNC(=O)c2cccc(C(=O)NCc3cc(=O)[nH]c(C)n3)c2)n1
2. O=C(N/N=C/c1cc(Cl)cc(Cl)c1[O-])c1ccccc1.O=C(N/N=C/c1cc(Cl)cc(Cl)c1[O-])c1ccccc1.[Co+2]
3. Cc1ccc(C)c(NC(=O)CC2SC(=Nc3ccccc3Cl)NC2=O)c1 (stereo not drawn)
4. CCCN(CCC)c1c([N+](=O)[O-])cc(C(=O)N(CCO)CCO)cc1[N+](=O)[O-]
5. CCOC(=O)C1([Se]c2ccccc2)CCCC1=O (stereo not drawn)
6. OC12c3ccccc3C3CCC4(OCCO4)C3C1c1ccccc12 (stereo not drawn)

1: > 100 µM; 2: > 100 µM; 3: > 100 µM; 4: > 100 µM; 5: 51.1 µM; 6: > 100 µM

For every item below, please supply its TGI.
1. COc1cccc2c1C(=O)OC2c1cccc2ccccc12 (stereo not drawn)
2. COC(=O)/C=c1\s/c(=C\C(=O)OC)c2ccccc12

1. > 100 µM
2. > 100 µM
